Listing of recorded self-splicing fitness (ln) by entry.
# METHOD_DESCRIPTION: self-splicing fitness, log relative to wild type (ln ratio); higher = more splicing; Tetrahymena group I intron in knt gene, E. coli kanamycin selection, DiMSum; sequences stand for … in CUCUCU…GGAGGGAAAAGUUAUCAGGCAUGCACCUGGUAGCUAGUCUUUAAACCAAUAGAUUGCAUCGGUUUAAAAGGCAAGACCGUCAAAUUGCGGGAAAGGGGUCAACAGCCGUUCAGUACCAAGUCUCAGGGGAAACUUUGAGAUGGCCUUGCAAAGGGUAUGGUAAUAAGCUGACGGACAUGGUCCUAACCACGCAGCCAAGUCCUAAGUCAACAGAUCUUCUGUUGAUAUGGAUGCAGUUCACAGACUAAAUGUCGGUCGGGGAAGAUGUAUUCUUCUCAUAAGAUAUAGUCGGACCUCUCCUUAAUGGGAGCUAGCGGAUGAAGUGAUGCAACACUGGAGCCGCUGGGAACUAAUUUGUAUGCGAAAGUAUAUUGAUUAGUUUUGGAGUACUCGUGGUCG;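 note: selection with 25 µg/mL kanamycin versus none on LB agar overnight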
# SETUP_CONDITIONS: 30 °C
Give the figure by itself; no unit, no explanation.

Would you please look over these solved cases?
| CONSTRUCT_SEQUENCE | self-splicing fitness (ln) |
| --- | --- |
| CACUAGCAAUAUUACGGCCA | -3.1 |
| AAAUAGCAAUAUUACGUCUU | 0.225 |
| GAAGAGCAAUAUUACGGGUU | -3.11 |
| GCUUAGCAAUAUUACGGCAC | -2.62 |
| GGCGAGCAAUAUUACGAAUC | -1.03 |
| CCCCAGCAAUAUUACGCAGC | -3.44 |
| AUAGAGCAAUAUUACGUUAG | -1.39 |
| GCUCAGCAAUAUUACGAAUU | -1.04 |
| UUUCAGCAAUAUUACGUAAU | -2.89 |
| AGAAAGCAAUAUUACGGUUC | -2.72 |

(Q) What value of self-splicing fitness (ln) has been reported for the following sequence? `CUUGAGCAAUAUUACGAGCU`
(A) -1.6

(Q) What value of self-splicing fitness (ln) has been reported for the following sequence? `CCAGAGCAAUAUUACGCGGC`
(A) -3.88

(Q) What value of self-splicing fitness (ln) has been reported for the following sequence? `GGAAAGCAAUAUUACGUCCU`
(A) -3.68

(Q) What value of self-splicing fitness (ln) has been reported for the following sequence? `CGCCAGCAAUAUUACGUCUG`
(A) -2.97

###

# METHOD_DESCRIPTION: self-splicing fitness, log relative to wild type (ln ratio); higher = more splicing; Tetrahymena group I intron in knt gene, E. coli kanamycin selection, DiMSum; sequences stand for … in CUCUCU…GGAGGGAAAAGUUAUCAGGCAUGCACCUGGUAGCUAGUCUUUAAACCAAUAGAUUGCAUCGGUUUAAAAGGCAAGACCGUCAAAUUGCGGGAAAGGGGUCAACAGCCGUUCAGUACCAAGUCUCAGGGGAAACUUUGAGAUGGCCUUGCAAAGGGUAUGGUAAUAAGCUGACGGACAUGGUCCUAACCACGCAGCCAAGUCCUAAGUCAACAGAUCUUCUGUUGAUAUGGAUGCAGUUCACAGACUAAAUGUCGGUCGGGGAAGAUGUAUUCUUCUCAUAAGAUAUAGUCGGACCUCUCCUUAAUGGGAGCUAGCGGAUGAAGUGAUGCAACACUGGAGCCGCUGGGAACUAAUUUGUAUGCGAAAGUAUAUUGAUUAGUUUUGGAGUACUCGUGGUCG
# SETUP_CONDITIONS: 37 °C
Listing of recorded self-splicing fitness (ln) by entry.
Give the figure by itself; no unit, no explanation.

Would you please look over these solved cases?
| CONSTRUCT_SEQUENCE | self-splicing fitness (ln) |
| --- | --- |
| CACAAGCAAUAUUACGACAA | -2.04 |
| GGCGAGCAAUAUUACGCAUU | -0.998 |
| GCAAAGCAAUAUUACGGGCC | -2.03 |

(Q) What value of self-splicing fitness (ln) has been reported for the following sequence? `ACACAGCAAUAUUACGUUUA`
(A) -1.99

(Q) What value of self-splicing fitness (ln) has been reported for the following sequence? `CCUUAGCAAUAUUACGCUAA`
(A) -1.97
